B1: tRNA (parent)
chain: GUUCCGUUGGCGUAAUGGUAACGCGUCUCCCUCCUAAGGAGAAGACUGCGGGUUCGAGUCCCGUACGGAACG

Variants of: B1
Assay: yeast fitness relative to wild type (ratio to wild type); higher = fitter; tRNA-Arg(CCU), competitive growth, 37 C, YPD
This sample holds only a part of the variants without activity.
Below, each of the variants is paired with its reported yeast fitness value.
// no unit, no text: just the number

Completed entries (count: 6):
- GUUCUGUUGGCGUAAUGGUAACGCGUCUCCCUCCUAAGGAGGAGACUGCGGGUUCGAGUCCCGUCCGGAACG [C5U A42G A65C]: 0.596
- GUUCCGUUGGCGUAAUGGUAACGCGUCUGCCUCCUAGGGAGAAGACUGCGGGUUCGUGUCCCGUACGGAACG [C29G A37G A57U]: 0.617
- GUUCCGUUGGCGUAAUGGUAACGCGUCUCCCUCCUAAGGAGAAGACUGCGGGUUCGAGCCCCGUACGGAACG [U59C]: 1
- GUUCCGUUGGCGUAAUGGUAACCAGUCUCGCUCCUAAGGUGAAGACAGCGCGUUCGAGUCCCGUAAGGUACG [G23C C24A C30G A40U U47A G51C C66A A69U]: 0.525
- GUUCCGUUCGCAUAAUGGUAACGCGUCUCCCUCCUAAGGAGAAGACUGCGGGUUCGCGUCCCGUACGGAACG [G9C G12A A57C]: 0.541
- GUUCCAUUGGCGUAAUGGUAACGCGUCUCCCUCCUAAGGUGAAGACUGCGGGUUCGAGUCCCGUACGGAACG [G6A A40U]: 0.823

# variant GUUCGGUUGGCGUAAUGGUAACGCGUCUCCCUCCUAAGGAGGAGACUGCGGGUUCGAGUCCCGUACGGAACG [C5G A42G] ; its yeast fitness = 0.701

GET /value?item= GUUCCGUUGGCGUAAUGGUAACGCGUCUCCUUCCUACGGAGAAGACUGCGGGUUCGAGUCCCGUACGGAACG [C31U A37C] &field=yeast fitness returns 0.761

The reported yeast fitness of the variant GUUCCGUUGGCGUAAUGGUAACGCGUCUCCCUCCUACGGAGUAGACUGCGGGUUCGAGUCCCGUACGGAACG [A37C A42U] was 0.809

Per the record, GUUCCGUUGGCGUAAUGGUAACGCGUCUCCCUCCUAAGGAGAAGACUACGGAUUCGAGUCCCGUACGGAACG [G48A G52A] has yeast fitness of 0.976

Query GUUCCGUUGGCGUAAUGGUAACGCGUCUCCUUCCUAAGGAGAAGACUGCGGGUUCGAGUCCCCUACCGUACG [C31U G63C G67C A69U] yields yeast fitness of 0.511

Note to self: yeast fitness recorded for GUUCCGUUGGCGUAAUGGUAACGCGUCUCACUCCUAAGGAGAUGACUGCGGGUUCGAGUCUCGUACGGAACG [C30A A43U C61U] was 0.602

Data point: GUUUCGUUGGCGUAAUGGUAACGCGUCUCCCUCCUAAGGAGAAGACUGCGGGUCCGAGUCCCGUACGGAACG [C4U U54C] ; yeast fitness = 0.921

Documented yeast fitness of GUUCCGUUGGCGUAAUGGUAACGCGUCUCCCUCCGAAGGAGAAGACUGCGGGUUCGAGUCCCGUAUGGAACG [U35G C66U] : 0.681

// yeast fitness value for GUUCCGUUGGCGUAGUGGUAAGGCGUCUCCCUCCUAAGGAGAAGACUGCGGGUUCGAGUCCCGUACGGAACG [A15G C22G] : 0.893

Entry GUUUCGUUAGCGUAAUGGUAACGCGUCUCCCUCCUAAGGAGAAGACUGCGGGUUCGAGUCGCGUACGGAACG [C4U G9A C61G] — recorded yeast fitness = 0.566

Measured yeast fitness of GUUACGUUGGCGUAAUGGUAACGCGUCUCCCUCCUAAGGAGAAGACUGCGGGUUCGAGUCCCGUACUGAACG [C4A G67U] : 0.843

response.value for GUUCCGUUGGCGUAAUGGUAACGCGUCUCCCUCCUAAGGAGAAGGCUGCGGGUUCGAGUCUCGUACGGAACG [A45G C61U] (field: yeast fitness) = 1.03

Quick note, yeast fitness for GCUCCGUUGGCGCAAUGGUAACGCGUCUCCCUCCUAAGGAAAAGACUGCGGGUUCGAGUGGUGUACGGAACG [U2C U13C G41A C60G C61G C62U] landed at 0.596

Looking up GUUCCGUUGGCGUAAUGGUAACGCGUCUCCCUCCUAAGGAGAAGGCUGCAGGUUCGAGUCCCGUACGGAACG [A45G G50A] , I see its yeast fitness listed as 0.857

yeast fitness for GUUCCGUUGGCGUAAUGGUAACGCGUCUCCCUCCUAAGGAAAAGACUGUGGGUUCGAGUCCCAUACGGAACG [G41A C49U G63A] is 0.678

yeast fitness recorded for this variant, GUGCCGUUGGCGUAAUGGUAACGCGUCUCCCUCCUAAGGAGAAGACUGCGGGUUUGAGUCCCGUACGGAACG [U3G C55U] , is 0.784

According to the records, this variant GUUCUGUUGGCGUAAUGGUAACGCGUCUCCCUCCAAAGGAGAAAACUGCGGGUUCGAGUCCCGUACGGAACG [C5U U35A G44A] displays yeast fitness of 0.558

So for GUUCCGUUGGCGUAAUGGUAACGCGUUUCCCUCCUAAGGGGAAAACUGCGGGUUCGAGUCCAGUACGGAACG [C27U A40G G44A C62A] , the logged yeast fitness turned out to be 0.51
